Each entry below carries its reported viability.
# condition-info: cell viability/%
Where a SMILES comes first, the peptide text is derived from it. [ ]: non-standard residue; d: D form. The star is where a group is joined. NHCH2CH2OH = OCCN*; For = O=C*
measure: viability (%)

{"compound": "CNC(=O)C[C@@H](NC(=O)[C@H](Cc1c[nH]c2ccccc12)NC(=O)[C@H](NC(=O)[C@H](Cc1c[nH]c2ccccc12)NC(=O)[C@@H](CC(C)C)NC(=O)[C@H](Cc1c[nH]c2ccccc12)NC(=O)[C@@H](CC(C)C)NC(=O)[C@@H](NC(=O)[C@H](NC(=O)[C@H](C)NC(=O)[C@H](NC(=O)[C@H](C)NC(=O)CNC(=O)[C@@H](NC=O)C(C)C)C(C)C)C(C)C)C(C)C)C(C)C)C(=O)N[C@@H](Cc1c[nH]c2ccccc12)C(=O)NCCO [compound 3903] (For-VGA[dV]A[dV]V[dL]W[dL]W[dV]W[dD](NHMe)W-NHCH2CH2OH)", "unit-of-measure": "%", "quantitative-readout": 100}
{"compound": "CNC(=O)C[C@@H](NC(=O)[C@@H](NC(=O)[C@H](NC(=O)[C@H](C)NC(=O)[C@H](NC(=O)[C@H](C)NC(=O)CNC(=O)[C@@H](NC=O)C(C)C)C(C)C)C(C)C)C(C)C)C(=O)N[C@@H](Cc1c[nH]c2ccccc12)C(=O)N[C@@H](C(=O)N[C@@H](Cc1c[nH]c2ccccc12)C(=O)N[C@@H](C(=O)N[C@@H](Cc1c[nH]c2ccccc12)C(=O)N[C@H](CC(C)C)C(=O)N[C@@H](Cc1c[nH]c2ccccc12)C(=O)NCCO)C(C)C)C(C)C [compound 11413] (For-VGA[dV]A[dV]V[dD](NHMe)W[dV]W[dV]W[dL]W-NHCH2CH2OH)", "unit-of-measure": "%", "quantitative-readout": 45.4}
{"compound": "CNC(=O)C[C@@H](NC(=O)[C@H](Cc1c[nH]c2ccccc12)NC(=O)[C@H](NC(=O)[C@H](Cc1c[nH]c2ccccc12)NC(=O)[C@@H](CC(C)C)NC(=O)[C@H](Cc1c[nH]c2ccccc12)NC(=O)[C@H](NC(=O)[C@@H](NC(=O)[C@H](NC(=O)[C@H](C)NC(=O)[C@@H](CC(C)C)NC(=O)[C@H](C)NC(=O)CNC(=O)[C@@H](NC=O)C(C)C)C(C)C)C(C)C)C(C)C)C(C)C)C(=O)N[C@@H](Cc1c[nH]c2ccccc12)C(=O)NCCO [compound 3499] (For-VGA[dL]A[dV]V[dV]W[dL]W[dV]W[dD](NHMe)W-NHCH2CH2OH)", "unit-of-measure": "%", "quantitative-readout": 100}
{"compound": "CC(C)C[C@@H](NC(=O)[C@H](C)NC(=O)CNC(=O)[C@@H](NC=O)C(C)C)C(=O)N[C@@H](C)C(=O)N[C@@H](C(=O)N[C@H](C(=O)N[C@@H](C(=O)N[C@@H](Cc1c[nH]c2ccccc12)C(=O)N[C@@H](C(=O)N[C@@H](Cc1c[nH]c2ccccc12)C(=O)N[C@@H](C(=O)N[C@@H](Cc1c[nH]c2ccccc12)C(=O)N[C@@H](C(=O)N[C@@H](Cc1c[nH]c2ccccc12)C(=O)NCCO)[C@H](C)O)C(C)C)C(C)C)C(C)C)C(C)C)C(C)C [compound 762] (For-VGA[dL]A[dV]V[dV]W[dV]W[dV]W[dT]W-NHCH2CH2OH)", "unit-of-measure": "%", "quantitative-readout": 96.8}
{"compound": "CC(C)C[C@@H](NC(=O)[C@@H](NC(=O)[C@H](NC(=O)[C@H](C)NC(=O)[C@H](NC(=O)[C@H](C)NC(=O)CNC(=O)[C@@H](NC=O)C(C)C)[C@H](C)O)C(C)C)C(C)C)C(=O)N[C@@H](Cc1c[nH]c2ccccc12)C(=O)N[C@@H](C(=O)N[C@@H](Cc1c[nH]c2ccccc12)C(=O)N[C@@H](C(=O)N[C@@H](Cc1c[nH]c2ccccc12)C(=O)N[C@@H](C(=O)N[C@@H](Cc1c[nH]c2ccccc12)C(=O)NCCO)C(C)C)C(C)C)[C@H](C)O [compound 1156] (For-VGA[dT]A[dV]V[dL]W[dT]W[dV]W[dV]W-NHCH2CH2OH)", "unit-of-measure": "%", "quantitative-readout": 85.9}
{"compound": "CNC(=O)C[C@@H](NC(=O)[C@H](Cc1c[nH]c2ccccc12)NC(=O)[C@@H](CC(C)C)NC(=O)[C@H](Cc1c[nH]c2ccccc12)NC(=O)[C@@H](CC(C)C)NC(=O)[C@H](Cc1c[nH]c2ccccc12)NC(=O)[C@H](NC(=O)[C@@H](NC(=O)[C@H](NC(=O)[C@H](C)NC(=O)[C@H](NC(=O)[C@H](C)NC(=O)CNC(=O)[C@@H](NC=O)C(C)C)C(C)C)C(C)C)C(C)C)C(C)C)C(=O)N[C@@H](Cc1c[nH]c2ccccc12)C(=O)NCCO [compound 7049] (For-VGA[dV]A[dV]V[dV]W[dL]W[dL]W[dD](NHMe)W-NHCH2CH2OH)", "unit-of-measure": "%", "quantitative-readout": 100}
{"compound": "CC(C)C[C@@H](NC(=O)[C@H](Cc1c[nH]c2ccccc12)NC(=O)[C@H](NC(=O)[C@@H](NC(=O)[C@H](NC(=O)[C@H](C)NC(=O)[C@H](NC(=O)[C@H](C)NC(=O)CNC(=O)[C@@H](NC=O)C(C)C)[C@H](C)O)C(C)C)C(C)C)C(C)C)C(=O)N[C@@H](Cc1c[nH]c2ccccc12)C(=O)N[C@H](CC(C)C)C(=O)N[C@@H](Cc1c[nH]c2ccccc12)C(=O)N[C@@H](C(=O)N[C@@H](Cc1c[nH]c2ccccc12)C(=O)NCCO)C(C)C [compound 4452] (For-VGA[dT]A[dV]V[dV]W[dL]W[dL]W[dV]W-NHCH2CH2OH)", "unit-of-measure": "%", "quantitative-readout": 100}
{"compound": "CC(C)C[C@@H](NC(=O)[C@H](C)NC(=O)[C@H](NC(=O)[C@H](C)NC(=O)CNC(=O)[C@@H](NC=O)C(C)C)C(C)C)C(=O)N[C@H](C(=O)N[C@@H](C(=O)N[C@@H](Cc1c[nH]c2ccccc12)C(=O)N[C@H](CC(C)C)C(=O)N[C@@H](Cc1c[nH]c2ccccc12)C(=O)N[C@@H](C(=O)N[C@@H](Cc1c[nH]c2ccccc12)C(=O)N[C@@H](C(=O)N[C@@H](Cc1c[nH]c2ccccc12)C(=O)NCCO)[C@H](C)O)C(C)C)[C@H](C)O)C(C)C [compound 3328] (For-VGA[dV]A[dL]V[dT]W[dL]W[dV]W[dT]W-NHCH2CH2OH)", "unit-of-measure": "%", "quantitative-readout": 100}
